quantity.name: melting point

compound: Cn1c2ccccc2c2c3ccccc3ccc21
value: 116 to 118 °C

compound: O=C(O)CCC(=O)NC1CCCCC1
value: 168 to 170 °C

compound: CC(C)(C)c1ccc(CCC=O)cc1NC(=O)CC1c2ccccc2Oc2ccccc21
value: 176 to 177 °C

compound: Cc1c2c(cn1C)N(C)C(=O)C(OC(=O)c1ccccc1)N=C2c1ccccc1Cl (stereo unspecified)
value: 228 to 229 °C

compound: COc1cccc(OC(=O)N2CCCC2=O)c1
value: 45 to 47 °C

compound: CC(c1cccnc1)N(c1ccc(F)cc1)S(C)(=O)=O (stereo unspecified)
value: 82 to 85 °C
